IC50 values, listed per item
- System: L. donovani Ld39 promastigotes
- Protocol: Anti-promastigote activity (MTS assay), L. donovani Ld39
- Type: cell-based
- Test Context: Leishmania donovani, 72 hours
Write the number in µM without appending the unit.

O=C(COc1ccc(-c2cc(=O)c3ccccc3o2)cc1)N1CCN(Cc2ccncc2)CC1 [FM12] :: 15

Req: Name the recorded IC50 for O=c1cc(-c2ccc(OCCN3CCCN(Cc4ccncc4)CC3)cc2)oc2ccccc12 [FM14] .
Resp: 1.4

* * *

- Protocol: Water solubility
- Assay type: physicochemical
Assay Readout: solubility

Req: Any idea what solubility was measured for O=c1cc(-c2ccc(OCCOCCN(CCOCCOc3ccc(-c4cc(=O)c5ccccc5o4)cc3)Cc3ccncc3)cc2)oc2ccccc12 ?
Resp: ~4000 µg/mL

* * *

- Test system: L. donovani Ld39 amastigotes (SSG-resistant)
- Protocol: Anti-amastigote activity in infected PEM, L. donovani Ld39
- Assay type: cell-based
- Test Context: Leishmania donovani, 72 h; infected PEM, 3 days, Giemsa; SSG-resistant
Assay Readout: IC50 (µM)
Number in µM, nothing else.

O=C(COc1ccc(-c2cc(=O)c3ccccc3o2)cc1)N1CCCN(Cc2ccncc2)CC1 [FM15] :: 3.3

Req: Entry under review: O=C(COc1ccc(-c2cc(=O)c3ccccc3o2)cc1)N1CCN(C(=O)c2ccncc2)CC1 [FM16] . Reported IC50?
Resp: 5.7

* * *

- Test system: L. amazonensis LV78 amastigotes
- Protocol: Anti-amastigote activity in infected PEM, L. amazonensis LV78
- Format: cell-based
- Test Context: infected PEM, 3 days, Giemsa
- Description: Mouse peritoneal elicited macrophages (PEM) were obtained as previously described (2). A round cover slip (12 mm in diameter) was placed into each well of 24-well culture plate. […] PEM cells were infected with late-log promastigotes (L. amazonensis LV78, L. braziliensis UA847, L. donovani HU3, L. donovani 39) for 24 hr at 37° C. […] The number of amastigotes per 100 macrophages were determined and used to calculate IC50 values.
Structures can show the parent of a compound that is named as a salt.
Property: IC50; scope: individual compounds
Write down the numeric answer in nM and omit the unit.

Here is how some compounds turned out for IC50.
O=c1cc(-c2ccc(OCCOCCNCc3ccccn3)cc2)oc2ccccc12 [FM09m.HCl] :: 7860
C[C@@H]1[C@H](O)[C@@H](C)/C=C/C=C/C=C/C=C/C=C/C=C/C=C/[C@H](O[C@@H]2O[C@H](C)[C@@H](O)[C@H](N)[C@@H]2O)C[C@@H]2O[C@](O)(C[C@@H](O)C[C@@H](O)[C@H](O)CC[C@@H](O)C[C@@H](O)CC(=O)O[C@H]1C)C[C@H](O)[C@H]2C(=O)O [Amphotericin B] :: 55

Req: Find the measured IC50: item O=c1cc(-c2ccc(OCCOCCN(Cc3ccccn3)Cc3ccccn3)cc2)oc2ccccc12 [FM09.HCl] , target or system L. amazonensis LV78 amastigotes.
Resp: 400

Req: Note, next up: COc1ccnc(CN(CCOCCOc2ccc(-c3cc(=O)c4ccccc4o3)cc2)Cc2nccc(OC)c2OC)c1OC [FM09aHCl]
Resp: 350

Req: Try O=c1cc(-c2ccc(OCCOCCN(Cc3ncccc3F)Cc3ncccc3F)cc2)oc2ccccc12 [FM09c.HCl] next.
Resp: 1450

Reference for the values: patent US10111854B2
